Values compiled from PubChem BioAssay AID1902.

Target: S. pyogenes SKKanGAS, kanamycin survival, BacTiterGlo, 6 h
Experiment: S. pyogenes SKKanGAS kanamycin growth inhibitors – SKKanGAS strain, luminescence, dose confirmation, streptokinase promoter inhibitor project, dose response (AID 1902);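 note: lower survival reflects blocked streptokinase promoter driving kanamycin resistance gene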
Calls of active or inactive are those of the source.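 Rule for the calls: active = EC50 no more than a set limit of log units above the highest dose; inactive = the rest.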
Return exactly one item of active, inactive

Before answering, review these 2 worked examples.
>  <COMPOUND>
N#C/C(=C(/O)c1ccc2c(c1)OCO2)c1nc2cc(C(F)(F)F)ccc2s1

>  <DISCRETE LABEL>
active

$$$$
>  <COMPOUND>
COc1ccc(/C=N/NC(=O)c2cc(C(C)(C)C)[nH]n2)cc1COc1ccc(F)cc1F

>  <DISCRETE LABEL>
active

$$$$

**Query** What is the recorded call for this compound in the test? "Cc1nn(Cc2ccc(C(=O)Nc3nc4c(C)cccc4s3)o2)c(C)c1Br"
**Result** active

**Query** Hi team, can someone confirm the assay call for "O=C(Nc1nnc(-c2ccc3c(c2)CCCC3)o1)c1c(F)cccc1F" ?
**Result** active

**Query** For "COc1ccc(/C=C/C(=O)NC(=S)NNC(=O)Cc2cccs2)cc1" , which call appears in the assay record?
**Result** active

**Query** Just curious, what result did "CC(C)C[C@H](NC(=O)c1[nH]cnc1C(=O)N[C@@H](Cc1ccccc1)C(=O)OC(C)(C)C)C(=O)OC(C)(C)C" get here?
**Result** active

**Query** In this assay, the call recorded for "O=C(N[C@H](CO)[C@H](O)c1ccc([N+](=O)[O-])cc1)C(Cl)Cl" was what?
**Result** active

**Query** Could you kindly confirm the outcome this assay logged for "CC1CCN(C(=O)c2ccc3c(c2)NC(=O)/C(=C/c2ccccc2)S3)CC1" ?
**Result** active

**Query** Please state the recorded outcome for this compound: "COc1ccccc1-c1nnc(NC(=O)CCS(=O)(=O)c2ccccc2)o1"
**Result** inactive

**Query** Which result was noted for this compound in the test: "CC/C(=N\NC(=S)Nc1cc(C)ccc1C)c1ccc(OC(F)F)cc1"
**Result** active

**Query** Field: outcome | Entry: Cc1cccc(NC2=Nc3ccccc3N3C2=Nc2c(c(C)nn2-c2ccccc2)C3c2ccc(O)c(O)c2)c1 (stereo not given)
**Result** active

**Query** What outcome does the record of this test show for "Nc1nc(CN2CCN(c3ccc(F)cc3)CC2)nc(N2CCCc3ccccc32)n1" ?
**Result** active

**Query** Would you mind telling me which call this test gave "NC(=O)NC(=O)CSc1nc2sc(-c3ccccc3)cc2c(=O)n1-c1ccccc1" ?
**Result** active

**Query** Look up the recorded call for "Cc1cc(C)c(C(=O)CC(=O)c2ccccc2Cl)c(O)c1" in this test.
**Result** active

**Query** What is the recorded call for this compound in the test? "COc1cc2oc3ccc(C#Cc4ccc(N)cc4)cc3c(=O)c2cc1OC"
**Result** active

**Query** // param item: "c1cn2c(NC3CCCCC3)c(-c3ccc(SC4CCCCC4)cc3)nc2cn1" ; yields the recorded call
**Result** active

**Query** What is the recorded call for this compound in the test? "C=CCn1c(Oc2ccc(C(=O)OC)cc2)nc2c1c(=O)n(C)c(=O)n2C"
**Result** active

**Query** Please indicate how the test categorized "N#Cc1c(Nc2cccc(F)c2)sc2c(O)cc(=O)[nH]c12" .
**Result** active

**Query** Per the records of this test, what outcome belongs to "CC(C)(C)c1nnc(N/N=C/c2cc(Br)ccc2O)n(N)c1=O" ?
**Result** active

**Query** Given "FC(F)(F)c1cccc(NC(=S)Nc2ccc(Cl)c(Cl)c2)c1" , state the outcome it received in this test.
**Result** active

**Query** In this assay, the call recorded for "CC(C)(C)c1ccc(C(=O)N2CCN(C(=O)c3ccco3)CC2)cc1" was what?
**Result** inactive

====

Target: S. pyogenes SKKanGAS, kanamycin survival, BacTiterGlo, 6 h
Assay: S. pyogenes SKKanGAS kanamycin growth inhibitors – SKKanGAS strain, luminescence, dose confirmation, streptokinase promoter inhibitor project, dose response (AID 1902);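 note: lower survival reflects blocked streptokinase promoter driving kanamycin resistance gene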
The source made the active and inactive calls.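 Rule for the calls: active = EC50 no more than a set limit of log units above the highest dose; inactive = the rest.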
OBSERVED PROPERTY: EC50

These solved cases illustrate the format of a correct answer.
>  <COMPOUND>
Cc1ccnc(NS(=O)(=O)c2ccc(NC(=O)c3cc(-c4ccc(Br)cc4)nc4ccccc34)cc2)n1

>  <OBSERVED PROPERTY>
EC50

>  <OBSERVED VALUE>
3.34 µM

$$$$
>  <COMPOUND>
CCC(C)Sc1cc(C(F)(F)F)c(C(=O)Nc2ccc(Cl)cc2)cn1 (centres undefined)

>  <OBSERVED PROPERTY>
EC50

>  <OBSERVED VALUE>
7.31 µM

$$$$
>  <COMPOUND>
COc1ccccc1C(=O)NNC(=S)NC(=O)c1ccco1

>  <OBSERVED PROPERTY>
EC50

>  <OBSERVED VALUE>
0.383 µM

$$$$
>  <COMPOUND>
Cc1ccc(NC2=NCC(Cc3ccc(Br)cc3)S2)cc1 (centres undefined)

>  <OBSERVED PROPERTY>
EC50

>  <OBSERVED VALUE>
0.557 µM

$$$$
>  <COMPOUND>
CC(C)Cn1c(N)c(C(=O)NCc2cccs2)c2nc3ccccc3nc21

>  <OBSERVED PROPERTY>
EC50

>  <OBSERVED VALUE>
5.37 µM

$$$$

Working through the 8 compounds below one at a time, give EC50 for each.
1. Cc1cc(C)c2nc(SCCc3ccccc3)nc(C)c2c1
2. Clc1cc(CSc2ccccc2)nc(-c2ccccc2)n1
3. COc1cc2nc(CSc3nc(-c4ccc(F)cc4)cs3)[nH]c(=O)c2cc1OC
4. CCCCN(CC)S(=O)(=O)c1ccc(C(=O)Nc2nnc(-c3ccccc3Cl)o2)cc1
5. Oc1c(Cl)cc(Cl)cc1/C=N/NC(=S)NC1CC2C=CC1C2 (centres undefined)
6. O=[N+]([O-])c1ccc(O)c(Nc2ncnc3ccc(Br)cc23)c1
7. O=C1NC(=S)/C(=C\c2ccc(-c3ccccc3Cl)o2)S1
8. COc1ccc(-c2cc3ncnc(Cl)c3s2)cc1

**Result**
["5.85 µM", "8.95 µM", "> 15 µM (inactive)", "0.226 µM", "0.177 µM", "3.32 µM", "2.94 µM", "7.15 µM"]

Provide EC50 for all items below, preserving their order.
1. COc1ccc(CN2C(=O)c3ccccc3C(/C=N/OCc3ccc(Cl)cc3)C2=O)cc1 (centres undefined)
2. O=C(Nc1nnc(C2CCCCC2)s1)c1ccc(Br)s1
3. CC(=O)Nc1nc(NC(=O)/C=C/c2ccccc2)n(-c2ccccc2)n1
4. C=CCNC(=S)N/N=C(\C)c1ccccn1
5. Cc1cc2oc(=O)cc(CNc3ccccc3F)c2cc1O
6. CC(=O)OCC1=C(C(=O)O)N2C(=O)C(NC(=O)C(C)Cn3nc(C)c(Cl)c3C)C2SC1 (centres undefined)
7. COc1ccc(/C=C2/S/C(=N/N=C3\CC4CCC3(C)C4(C)C)NC2=O)cc1 (centres undefined)
8. CCOC(=O)C1=C(C)n2c(s/c(=C/c3cccc([N+](=O)[O-])c3)c2=O)=NC1c1ccc(O)c(OC)c1 (centres undefined)

**Result**
1.11 µM
3.99 µM
1.74 µM
1.76 µM
10.2 µM
2.95 µM
10.7 µM
10.5 µM

Each compound below has a recorded value; state its EC50.
1. O=C(c1cc(-c2ccccc2)n[nH]1)N1CCc2c([nH]c3ccccc23)C1c1ccccn1 (centres undefined)
2. CCc1c(C2(O)CCCCC2)[nH]c2c(C(=O)OC)cc(Cl)cc12
3. O/N=C(\c1ccc(Cl)cc1Cl)c1ncc(C(F)(F)F)cc1Cl

**Result**
["5.23 µM", "4.12 µM", "2.74 µM"]

====

Target: S. pyogenes SKKanGAS, kanamycin survival, BacTiterGlo, 6 h
Test: S. pyogenes SKKanGAS kanamycin growth inhibitors – SKKanGAS strain, luminescence, dose confirmation, streptokinase promoter inhibitor project, dose response (AID 1902);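 note: lower survival reflects blocked streptokinase promoter driving kanamycin resistance gene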
Activity calls are given as the source filed them.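 Rule for the calls: active = EC50 no more than a set limit of log units above the highest dose; inactive = the rest.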
I'd be grateful if you could share measured EC50 for these entries.

The cases that follow already have their EC50 on record.
>  <COMPOUND>
Cc1cccc(C(=O)NCC(=O)N2CCOCC2)c1

>  <EC50>
> 15 µM (inactive)

$$$$
>  <COMPOUND>
Nc1cc(-c2ccc(OC(F)(F)F)cc2)nn1-c1ccc(Cl)c(Cl)c1

>  <EC50>
6.17 µM

$$$$
>  <COMPOUND>
OC(c1ccc(OCc2ccccc2)cc1)c1nnc(-c2ccccc2)o1 (configuration not stated)

>  <EC50>
13.4 µM

$$$$

// for each compound in input: emit EC50
1. CCOc1ccc(NC(=O)CN(C)C(=O)C2CC(=O)N(c3ccc4c(c3)OCCO4)C2)cc1OCC (configuration not stated)
2. CC1(C)CC(=O)C2=C(C1)N=C1c3ccccc3C(=O)C1C2c1ccc(Cl)cc1 (configuration not stated)
3. Nc1nonc1C(=O)NCCN=Cc1cc(Cc2ccccc2)cc(Br)c1O

**Result**
1. > 15 µM (inactive)
2. 8.16 µM
3. 5 µM

Return reported EC50 values for all items listed beneath this line.
1. CCCCSc1ccc2nc(-c3ccc(C#N)cc3)cn2c1
2. CN(C)CCCNC(=S)NCC(c1ccc(Cl)cc1Cl)c1c[nH]c2ccccc12 (configuration not stated)
3. O=C(NCCS(=O)(=O)N1CCN(c2ccccc2F)CC1)C1CC(=O)N(c2ccc(F)cc2)C1 (configuration not stated)
4. COc1ccc(C(=O)NNC(=S)NC(=O)c2ccc(Br)o2)cc1OC
5. Fc1cccc2sc(Nc3nnc(-c4ccco4)o3)nc12
6. CC(C)c1ccc(C(=O)NC(=S)Nc2ccc3[nH]c(=O)[nH]c3c2)cc1
7. COc1ccc(C2c3ccc(O)cc3Oc3ncn4nc(-c5ccncc5)nc4c32)cc1OC (configuration not stated)

**Result**
["7.72 µM", "7.22 µM", "> 15 µM (inactive)", "0.779 µM", "0.307 µM", "6.26 µM", "6.28 µM"]
